Tested on: SNB-19 CNS
Experimental Protocol: NCI tumour cell line growth inhibition, 48 h
Reported Endpoint: GI50

Recorded results for 2 compounds are shown here.
> print(dat)
                            molecule.smiles  system.under.test  readout.value
1            O=C(Nc1ccc(I)cc1F)c1cc(F)ccc1O         SNB-19 CNS         406 nM
2  CCn1c(-c2nonc2N)nc2c(C#CC(C)(C)O)ncc(OCC3CCNCC3)c21         SNB-19 CNS       10600 nM

Query block: Data request, read-out GI50, for "Cn1cc(C2=C(c3cn(C)c4cc(Cl)ccc34)C(=O)NC2=O)c2ccccc21"
Result block: 145 nM

Data provenance: PubChem BioAssay (NCI)
